Recorded measurements of Human, one per entry
test: Plasma stability assay; format: in vitro ADME, human; details: plasma stability half-life, human plasma, 37° C.
Numbered stars: 1 amine (or outer) side, 2 acyl side, 3 side chain; on linkers, the order of the positions; unused ones are H or OH. Bridge positions count the residues as written; N and C are the ends. Square brackets hold non-standard residues; d marks the D form. Peptide text beside a SMILES is read from it. * marks the point of attachment. Phe(3-Me) = Cc1cccc(C[C@H](N)C(=O)O)c1; Pro(4R-Me) = C[C@H]1CN[C@H](C(=O)O)C1; Hyp = O=C(O)[C@@H]1C[C@@H](O)CN1; NH(4-Me-phenyl) = Cc1ccc(N*)cc1; aThr = C[C@H](O)[C@H](N)C(=O)O; Pip = O=C(O)[C@@H]1CCCCN1; CO = O=C([*:1])[*:2]

[
  {
    "compound": "Cc1ccc(NC(=O)N[C@@H](Cc2cccc(C)c2)C(=O)N[C@H]2COC(=O)[C@@H]3C[C@H](C)CN3C(=O)[C@H](C)NC(=O)[C@@H]3CCCCN3C(=O)[C@@H]3CCCN3C2=O)cc1 (stereo in doubt) [Compound 43]",
    "Human": ">50 h"
  },
  {
    "compound": "Cc1ccc(NC(=O)N[C@@H](Cc2cccc(C)c2)C(=O)N[C@@H]2C(=O)N3C[C@H](O)C[C@H]3C(=O)N3CCCC[C@H]3C(=O)N[C@@H](C)C(=O)N3C[C@H](C)C[C@H]3C(=O)O[C@H]2C)cc1 [Compound 26] ({NH(4-Me-phenyl)-CO}-[Phe(3-Me)][aThr][Hyp][Pip]A[Pro(4R-Me)]; ester 2-C)",
    "Human": ">50 h"
  }
]

---

# Mouse annotations
Experiment: Microsomal metabolic stability
Assay type: in vitro ADME, mouse
Details: microsomal metabolic stability half-life, mouse liver microsomes
Procedure: Compounds were initially prepared by dissolving them into DMSO at a final concentration of 10 mM. NADPH regenerating solutions A and B and mouse liver microsomes (CD-1) were obtained from BD Gentest (Woburn, Mass.). […] Sample preparation for microsomal stability was modified from methods of Di, L., et al., Int J Pharm. […] The metabolic stability is evaluated via the half-life from least-squares fit of the multiple time points based on first-order kinetics.
Numbered stars: 1 amine (or outer) side, 2 acyl side, 3 side chain; on linkers, the order of the positions; unused ones are H or OH. Bridge positions count the residues as written; N and C are the ends. Square brackets hold non-standard residues; d marks the D form. Peptide text beside a SMILES is read from it. * marks the point of attachment. X5 = O=C([C@@H]1C[C@@H](OP(=O)(O)O)CN1[*:1])[*:2]; Piperazine(2S-CO,4-Me) = CN1CCN[C@H](C(=O)O)C1; Phe(3,5-Me2) = Cc1cc(C)cc(C[C@H](N)C(=O)O)c1; Phe(3-Me) = Cc1cccc(C[C@H](N)C(=O)O)c1; Pro(4S-Me) = C[C@@H]1CN[C@H](C(=O)O)C1; NH(4-Cl-2-F-phenyl) = Fc1cc(Cl)ccc1N*; Pro(4R-Me) = C[C@H]1CN[C@H](C(=O)O)C1; Hyp = O=C(O)[C@@H]1C[C@@H](O)CN1; NH(4-Me-phenyl) = Cc1ccc(N*)cc1; aThr = C[C@H](O)[C@H](N)C(=O)O; Pip = O=C(O)[C@@H]1CCCCN1; 4Abz = Nc1ccc(C(=O)O)cc1; CO = O=C([*:1])[*:2]

[
  {
    "compound": "CCOC(=O)c1ccc(NC(=O)N[C@@H](Cc2cccc(C)c2)C(=O)N[C@@H]2C(=O)N3C[C@H](O)C[C@H]3C(=O)N3CCCC[C@H]3C(=O)N[C@@H](C)C(=O)N3C[C@H](C)C[C@H]3C(=O)O[C@H]2C)cc1 [Compound 36] ({OEt-4Abz-CO}-[Phe(3-Me)][aThr][Hyp][Pip]A[Pro(4R-Me)]; ester 2-C)",
    "unit-symbol": "h",
    "censor-symbol": "=",
    "Mouse": 11.23
  },
  {
    "compound": "Cc1ccc(NC(=O)N[C@@H](Cc2cccc(C)c2)C(=O)N[C@@H]2C(=O)N3CCC[C@H]3C(=O)N3CCCC[C@H]3C(=O)N[C@@H](C)C(=O)N3C[C@@H](C)C[C@H]3C(=O)O[C@H]2C)cc1 [Compound 45] ({NH(4-Me-phenyl)-CO}-[Phe(3-Me)][aThr]P[Pip]A[Pro(4S-Me)]; ester 2-C)",
    "unit-symbol": "h",
    "censor-symbol": "=",
    "Mouse": 2.35
  },
  {
    "compound": "Cc1ccc(NC(=O)N[C@@H](Cc2cccc(C)c2)C(=O)N[C@@H]2C(=O)N3CCC[C@H]3C(=O)N3CCCC[C@H]3C(=O)N[C@@H](C)C(=O)N3C[C@H](C)C[C@H]3C(=O)O[C@H]2C)cc1 [Compound 1] ({NH(4-Me-phenyl)-CO}-[Phe(3-Me)][aThr]P[Pip]A[Pro(4R-Me)]; ester 2-C)",
    "unit-symbol": "h",
    "censor-symbol": "=",
    "Mouse": 5.22
  },
  {
    "compound": "Cc1cccc(C[C@H](NC(=O)Nc2ccc(Cl)cc2F)C(=O)N[C@@H]2C(=O)N3C[C@H](OP(=O)(O)O)C[C@H]3C(=O)N3CCCC[C@H]3C(=O)N[C@@H](C)C(=O)N3C[C@H](C)C[C@H]3C(=O)O[C@H]2C)c1 [Compound 29] ({NH(4-Cl-2-F-phenyl)-CO}-[Phe(3-Me)][aThr][X5][Pip]A[Pro(4R-Me)]; ester 2-C)",
    "unit-symbol": "h",
    "censor-symbol": ">",
    "Mouse": 4
  },
  {
    "compound": "Cc1ccc(NC(=O)N[C@@H](Cc2cccc(C)c2)C(=O)N[C@H]2COC(=O)[C@@H]3C[C@@H](C)CN3C(=O)[C@H](C)NC(=O)[C@@H]3CN(C)CCN3C(=O)[C@@H]3CCCN3C2=O)cc1 [Compound 15] ({NH(4-Me-phenyl)-CO}-[Phe(3-Me)]SP[Piperazine(2S-CO,4-Me)]A[Pro(4R-Me)]; ester 2-C)",
    "unit-symbol": "h",
    "censor-symbol": "=",
    "Mouse": 2.28
  },
  {
    "compound": "Cc1ccc(NC(=O)N[C@@H](Cc2cccc(C)c2)C(=O)N[C@H]2COC(=O)[C@@H]3C[C@H](C)CN3C(=O)[C@H](C)NC(=O)[C@@H]3CCCCN3C(=O)[C@@H]3CCCN3C2=O)cc1 (stereo in doubt)",
    "unit-symbol": "h",
    "censor-symbol": "=",
    "Mouse": 3.57
  },
  {
    "compound": "Cc1ccc(NC(=O)N[C@@H](Cc2cccc(C)c2)C(=O)N[C@@H]2C(=O)N3C[C@H](O)C[C@H]3C(=O)N3CCCC[C@H]3C(=O)N[C@@H](C)C(=O)N3C[C@H](C)C[C@H]3C(=O)O[C@H]2C)cc1 [Compound 26] ({NH(4-Me-phenyl)-CO}-[Phe(3-Me)][aThr][Hyp][Pip]A[Pro(4R-Me)]; ester 2-C)",
    "unit-symbol": "h",
    "censor-symbol": "=",
    "Mouse": 2.49
  },
  {
    "compound": "Cc1ccc(NC(=O)N[C@@H](Cc2cc(C)cc(C)c2)C(=O)N[C@@H]2C(=O)N3CCC[C@H]3C(=O)N3CCCC[C@H]3C(=O)N[C@@H](C)C(=O)N3C[C@H](C)C[C@H]3C(=O)O[C@H]2C)cc1 [Compound 2] ({NH(4-Me-phenyl)-CO}-[Phe(3,5-Me2)][aThr]P[Pip]A[Pro(4R-Me)]; ester 2-C)",
    "unit-symbol": "h",
    "censor-symbol": "=",
    "Mouse": 2.85
  }
]

---

# Human listing for each entry below
test: Plasma stability assay; type: in vitro ADME, human; settings: plasma stability half-life, human plasma, 37° C.
Numbered stars: 1 amine (or outer) side, 2 acyl side, 3 side chain; on linkers, the order of the positions; unused ones are H or OH. Bridge positions count the residues as written; N and C are the ends. Square brackets hold non-standard residues; d marks the D form. Peptide text beside a SMILES is read from it. * marks the point of attachment. Piperazine(2S-CO,4-Me) = CN1CCN[C@H](C(=O)O)C1; Phe(3-Me) = Cc1cccc(C[C@H](N)C(=O)O)c1; Pro(4R-Me) = C[C@H]1CN[C@H](C(=O)O)C1; X1 = O=C([C@@H]1CSCCN1[*:1])[*:2]; Hyp = O=C(O)[C@@H]1C[C@@H](O)CN1; NH(4-Me-phenyl) = Cc1ccc(N*)cc1; aThr = C[C@H](O)[C@H](N)C(=O)O; Pip = O=C(O)[C@@H]1CCCCN1; 4Abz = Nc1ccc(C(=O)O)cc1; CO = O=C([*:1])[*:2]

[
  {
    "molecule": "Cc1ccc(NC(=O)N[C@@H](Cc2cccc(C)c2)C(=O)N[C@H]2COC(=O)[C@@H]3C[C@@H](C)CN3C(=O)[C@H](C)NC(=O)[C@@H]3CN(C)CCN3C(=O)[C@@H]3CCCN3C2=O)cc1 [Compound 15] ({NH(4-Me-phenyl)-CO}-[Phe(3-Me)]SP[Piperazine(2S-CO,4-Me)]A[Pro(4R-Me)]; ester 2-C)",
    "Human": ">50 h"
  },
  {
    "molecule": "CCOC(=O)c1ccc(NC(=O)N[C@@H](Cc2cccc(C)c2)C(=O)N[C@@H]2C(=O)N3C[C@H](O)C[C@H]3C(=O)N3CCCC[C@H]3C(=O)N[C@@H](C)C(=O)N3C[C@H](C)C[C@H]3C(=O)O[C@H]2C)cc1 [Compound 36] ({OEt-4Abz-CO}-[Phe(3-Me)][aThr][Hyp][Pip]A[Pro(4R-Me)]; ester 2-C)",
    "Human": "57.50 h"
  },
  {
    "molecule": "Cc1ccc(NC(=O)N[C@@H](Cc2cccc(C)c2)C(=O)N[C@@H]2C(=O)N3C[C@H](O)C[C@H]3C(=O)N3CCSC[C@H]3C(=O)N[C@@H](C)C(=O)N3C[C@H](C)C[C@H]3C(=O)O[C@H]2C)cc1 [Compound 42] ({NH(4-Me-phenyl)-CO}-[Phe(3-Me)][aThr][Hyp][X1]A[Pro(4R-Me)]; ester 2-C)",
    "Human": ">50 h"
  }
]
